assay: proliferation blockers of H69AR lung cancer cells, primary screen, cell-based, human, 86K library (AID 598); details: H69AR lung tumor viability, ATP luminescence, 72 h; at 10 µM; hits give low values;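 further: multidrug resistant small cell line overexpressing MRP-1 efflux transporter; 100% = mean luminescence of untreated control wells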
Out of some 85,000 compounds screened, about 5,100 (6%) were called active. The sample as a whole holds a higher share of actives than the screen did.
Provide the reported viability of each item.
Answer in %, number only, no unit symbol.

// `COc1ccccc1N1CCN(C(=O)c2cc3c(-c4ccc(Cl)cc4)nn(C)c3s2)CC1` : viability value = 79.4

// OC(COc1ccccc1)Cn1cc(Br)cn1 (stereo not given) : viability value = 109

// CCC(C)NC(=O)CSC1=Nc2ccccc2C2=NC(CCC(=O)NCc3ccco3)C(=O)N12 (stereo not given) : viability value = 90.7

// `O=C(NCCCn1ccnc1)Nc1ccc(Cl)cc1Cl` : viability value = 93.2

// CCOc1ccc(-n2c(N)c(C(=O)NCC3CCCO3)sc2=S)cc1 (stereo not given) : viability value = 94.8

// `FC(F)(F)c1cnc(Oc2ccccc2-c2nnc(-c3ccc(Cl)cc3)o2)c(Cl)c1` : viability value = 92.2

// `O=c1onc(-c2cccs2)n1Cc1ccccc1` : viability value = 95.9

// `COc1ccc(S(=O)(=O)N/N=C\c2ccc(OC)c(COc3ccc(C)cc3[N+](=O)[O-])c2)cc1` : viability value = 29.6

// `CCOc1cc(N2CCOCC2)c(OCC)cc1NC(=O)COC(=O)[C@H](Cc1c[nH]c2ccccc12)NC(C)=O` : viability value = 71.8

// `CCCC(=O)Nc1ccc(C(=O)NCCCn2ccnc2)cc1` : viability value = 15.8

// `Cc1cccc(-n2nc3c(c2NC(=O)c2ccc(Br)o2)CSC3)c1C` : viability value = 59.7

// `O=C(CCS(=O)(=O)c1cccc2nsnc12)N1CCN(c2ccccc2F)CC1` : viability value = 91

// `CCCCCCNCCn1cnc2c(N)ncnc21` : viability value = 105

// `CCOC(=O)c1cc2c(ccn2C)n1CC(=O)N1CCC(C)CC1` : viability value = 88.5

// `CCCCC(=O)Nc1ccc(C(=O)NCCCn2ccnc2)cc1` : viability value = 7.32

// `Cc1cc(C)nc(-n2nc(C)cc2NC(=O)c2ccc(Br)o2)n1` : viability value = 36.5

// `CCC1(CC)Cc2ccccc2-c2nc3ccccc3c(=O)n21` : viability value = 88.7

// `COC(=O)c1cc(OC)ccc1-c1ccc(OC)cc1` : viability value = 29.3

// `COc1ccc(NC(=O)c2cccc(NC(=O)c3ccco3)c2)c(OC)c1` : viability value = 88.5

// `Cn1c(-c2sc3cc(C(F)(F)F)cnc3c2-c2ccccc2)n[nH]c1=S` : viability value = 92.5

// `CCCOn1c(-n2nc(C)cc2C)nc2ccccc2c1=O` : viability value = 93.8

// `COc1ccc(-c2ccc(-c3noc(-c4ccncc4)n3)c(OC)n2)cc1` : viability value = 93.4

// `CCC(=O)Nc1ccc2c(c1)nc(CCN1CCN(C)CC1)n2C` : viability value = 74.1

// `COc1cc(NS(=O)(=O)c2ccc(NC(C)=O)cc2)cc(OC)c1` : viability value = 90.3

// `COC(=O)c1ccc(NC(=O)C23CC4CC(C2)CC(n2cnc(Cl)n2)(C4)C3)cc1` : viability value = 72.7

// `COC(=O)c1sccc1-n1cccc1C(=O)C(=O)N1CCCCC1` : viability value = 95.1

// `Clc1cccc(N=C2NN=C(c3ccc4c(c3)OCCO4)CS2)c1` : viability value = 1.44

// `CCOC(=O)CSc1nnc(-c2ccncc2)o1` : viability value = 95.7

// `COC(=O)/C(NC(C)=O)=C(\C)c1ccc(Cl)cc1` : viability value = 102

// `COc1ccc(S(=O)(=O)Nc2ccc3oc(C)c(C(C)=O)c3c2)cc1` : viability value = 18.7

// `Cc1nn(CC(=O)Nc2ccc3c(c2)nc(CN2CCCCC2)n3C)c(=O)c2ccccc12` : viability value = 104

// CC1CN(S(=O)(=O)c2ccccc2)C(C)CN1S(=O)(=O)c1ccccc1 (stereo not given) : viability value = 101

// `COc1ccc(OC)c(C(=O)c2ccc(C(=O)O)cc2)c1` : viability value = 99.1

// Fc1ccccc1/C=C1\CCCC2=C1Nc1ncnn1C2c1ccccc1F (stereo not given) : viability value = 1.53

// `CCOc1cc(N2CCOCC2)c(OCC)cc1NC(=O)COc1cccc2cccnc12` : viability value = 21.9

// `COc1ccc2c(c1)cc1n2CCN=C1NN` : viability value = 90.8

// `CCOC(=O)/C(C#N)=C\c1c(C)cc(C)c(COC(C)=O)c1C` : viability value = 95.1

// `O=C(CCN1c2ccccc2Sc2ccccc21)Nc1ccccc1` : viability value = 70.8

// `COc1ccc(-c2c3c(=O)n(C)c(=O)n(C)c3cn2-c2cccc(OC)c2)cc1` : viability value = 71.5

// `COc1cc(OC)cc(-c2cc3nc(C4CCN(C(=O)OC(C)(C)C)CC4)cc(=O)n3[nH]2)c1` : viability value = 106

// `CN(Cc1ccccc1)C(=O)COc1ccccc1` : viability value = 97.9

// `COCCn1c(C)cc(C2=NNC(=Nc3ccc(F)cc3)SC2)c1C` : viability value = 88.2

// `COC(=O)c1cc(Cl)c(NC(=O)c2ccco2)cc1OC` : viability value = 94

// `Cn1ccs/c1=N\S(=O)(=O)c1ccc(C(C)(C)C)cc1` : viability value = 89.4

// `CCOC(=O)N1CCN(C(=O)c2cc3c(-c4ccc(Cl)cc4)nn(C)c3s2)CC1` : viability value = 31.4

----------
test: proliferation blockers of H69AR lung cancer cells, primary screen, cell-based, human, 86K library (AID 598); details: H69AR lung tumor viability, ATP luminescence, 72 h; at 10 µM; hits give low values;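 further: multidrug resistant small cell line overexpressing MRP-1 efflux transporter; 100% = mean luminescence of untreated control wells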
In all, about 85,000 compounds went through this assay and about 5,100 (6%) were called active. The list comes from a sample in which actives are over-represented; it also holds close analogues and randomly drawn compounds.
Assay Endpoint: viability (%)
Answer in %, number only, no unit symbol.

// `O=C(c1cc2c(s1)CCC2)N1CCN(c2ccccc2)CC1` : viability value = 39.4

// `CC(=O)N1CCCc2cc(S(=O)(=O)CCC(=O)N3CCN(c4ccccc4)CC3)ccc21` : viability value = 86.6

// `COCCn1c(=S)[nH]c2cc(C(=O)NCCc3ccc(OC)c(OC)c3)ccc2c1=O` : viability value = 78.1

// COc1cccc2cc(C(C)N(CCCN3CCOCC3)C(=O)Nc3ccc(Cl)cc3)oc12 (stereo not given) : viability value = 31.7

// `COC(=O)c1c(C)c(C)nc(N)c1C#N` : viability value = 98.1

----------
test: proliferation blockers of H69AR lung cancer cells, primary screen, cell-based, human, 86K library (AID 598); details: H69AR lung tumor viability, ATP luminescence, 72 h; at 10 µM;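 further: multidrug resistant small cell line overexpressing MRP-1 efflux transporter; 100% = mean luminescence of untreated control wells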
The campaign covered roughly 85,000 compounds. About 5,100 (6%) were called active.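 Rule for the calls: active = viability at or below 40%; inactive = viability above 40%.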 The entries come from a sample that favours actives as a whole.
Parameter call: string, one of true (1) (active), false (0) (inactive)

Per the records of this test, what outcome belongs to O=C(OC1CCOC1=O)c1ccc(-c2nc3ccccc3s2)s1 (centres undefined) ?
false (0)

Per the records of this test, what outcome belongs to `COc1ccc(OC)c(NC(=O)CN2CCN(C(=O)c3ccco3)CC2)c1` ?
false (0)

Per the records of this test, what outcome belongs to `Cc1cccc(-n2c(O)c(C=Nc3ccccc3N)c(=O)[nH]c2=O)c1` ?
true (1)

Per the records of this test, what outcome belongs to `COc1ccc(CSc2nc(N3CCOCC3)c3c(c2C#N)CC(C)(C)OC3)cc1` ?
false (0)

Per the records of this test, what outcome belongs to `COC(=O)c1nc2ccccc2s1` ?
false (0)

Per the records of this test, what outcome belongs to `CC1(C)Cc2c(C#N)c(SCc3nc4ccccc4[nH]3)nc(N3CCOCC3)c2CO1` ?
true (1)

Per the records of this test, what outcome belongs to `CCOC(=O)N1CCC(Nc2c(NCCCN3CCN(CC)CC3)c(=O)c2=O)CC1` ?
false (0)

Per the records of this test, what outcome belongs to `CCOC(=O)c1c(NC(=O)CCl)sc(C(=O)N(CC)CC)c1C` ?
true (1)

Per the records of this test, what outcome belongs to CN=C1SC(CC(=O)Nc2ccc(C(=O)O)cc2)C(=O)N1C (centres undefined) ?
false (0)

Per the records of this test, what outcome belongs to `O=C(CN1CCN(C(=O)c2ccco2)CC1)Nc1ccc2c(c1)OCO2` ?
false (0)

Per the records of this test, what outcome belongs to `CCOC(=O)Nc1sc(C(=O)N(C)C)c(C)c1C(=O)OCC` ?
false (0)

Per the records of this test, what outcome belongs to `COc1cc(OC)c(NC(=O)c2ccc(Br)o2)cc1Cl` ?
false (0)

Per the records of this test, what outcome belongs to `CCCCc1nnc(NC(=O)CS(=O)(=O)Cc2ccccc2)s1` ?
false (0)

Per the records of this test, what outcome belongs to CC(O)CN(Cc1ccc(Cl)cc1)CC(C)O (centres undefined) ?
false (0)

Per the records of this test, what outcome belongs to `CCSc1ccccc1C(=O)NCc1ccc(OC)cc1` ?
false (0)

Per the records of this test, what outcome belongs to `Cc1ccc(S(=O)(=O)/N=C(\CN2CCOCC2)N2CCOCC2)cc1` ?
false (0)

Per the records of this test, what outcome belongs to `COc1ccccc1N1CC(O)=C(c2nc3ccccc3s2)C1=N` ?
true (1)

Per the records of this test, what outcome belongs to CCOc1ccccc1C(=O)NC1CC2CCCC(C1)N2Cc1ccccc1 (centres undefined) ?
false (0)

Per the records of this test, what outcome belongs to `COc1ccc(N2CCN(Cc3ccc(Br)s3)CC2)cc1` ?
false (0)

Per the records of this test, what outcome belongs to `CC1CCN(S(=O)(=O)c2ccc(S(=O)(=O)NCc3ccco3)cc2)CC1` ?
false (0)

Per the records of this test, what outcome belongs to `COCc1nc2ccccc2n1Cc1ccccc1Br` ?
false (0)

Per the records of this test, what outcome belongs to `Cc1cccc(-n2ncc3c(N4CCc5ccccc54)ncnc32)c1` ?
true (1)

Per the records of this test, what outcome belongs to `O=C(c1cc2sccc2n1Cc1ccc(F)cc1)N1CCc2ccccc21` ?
false (0)

Per the records of this test, what outcome belongs to `CCCC(=O)Nc1ccc(Cl)c(NC(=O)c2ccc(Br)o2)c1` ?
true (1)
